test system: NCI-H1755 (Lung Adenocarcinoma); assay: combination Emax (second highest fraction inhibited in the dose matrix, 72 h); higher = more inhibition; extreme values may be limits of the assay
List of combination Emax values.

Observe how each entry below is paired with its result.
MOLECULE	combination Emax
Cc1cc2ncnn2cc1Nc1ncc2c(n1)n(C1CCOCC1)c(=O)n2C [AZD7648] + C=CCn1c(=O)c2cnc(Nc3ccc(N4CCN(C)CC4)cc3)nc2n1-c1cccc(C(C)(C)O)n1 [AZD1775] (first compound max 10 µM, partner max 1 µM)	0.77
Cc1cc2ncnn2cc1Nc1ncc2c(n1)n(C1CCOCC1)c(=O)n2C [AZD7648] + O=C(c1cc(Cc2n[nH]c(=O)c3ccccc23)ccc1F)N1CCN(C(=O)C2CC2)CC1 [Olaparib] (first compound max 10 µM, 7x7, partner max 10 µM)	0.263
C=CCn1c(=O)c2cnc(Nc3ccc(N4CCN(C)CC4)cc3)nc2n1-c1cccc(C(C)(C)O)n1 [AZD1775] + Nc1ccn([C@@H]2O[C@H](CO)[C@@H](O)C2(F)F)c(=O)n1 [Gemcitabine] (first compound max 1 µM, partner max 0.3 µM)	0.786
O=C(c1cc(Cc2n[nH]c(=O)c3ccccc23)ccc1F)N1CCN(C(=O)C2CC2)CC1 [Olaparib] + CC1(C)CCC(CN2CCN(c3ccc(C(=O)NS(=O)(=O)c4ccc(NCC5CCOCC5)c([N+](=O)[O-])c4)c(Oc4cnc5[nH]ccc5c4)c3)CC2)=C(c2ccc(Cl)cc2)C1 [Venetoclax] (first compound max 10 µM, 7x7, partner max 1 µM)	0.126
Cc1cc2ncnn2cc1Nc1ncc2c(n1)n(C1CCOCC1)c(=O)n2C [AZD7648] + C[C@@H]1COCCN1C2=NC(=NC(=C2)C3(CC3)[S@](=N)(=O)C)C4=C5C=CNC5=NC=C4 [AZD6738] (first compound max 10 µM, 7x7, partner max 10 µM)	0.883

Note to self: combination Emax of NC1(C(=O)N[C@@H](CCO)c2ccc(Cl)cc2)CCN(c2ncnc3[nH]ccc23)CC1 [Capivasertib] + C[C@@H]1COCCN1C2=NC(=NC(=C2)C3(CC3)[S@](=N)(=O)C)C4=C5C=CNC5=NC=C4 [AZD6738] (first compound max 10 µM, 7x7, partner max 10 µM) with NCI-H1755 (Lung Adenocarcinoma) was 0.83

Note to self: combination Emax of CN(C)CCCOc1ccc(-c2ccc3ncc4c(c3c2)n(C2CCOCC2)c(=O)n4C)cn1 [AZD0156] + C=CCn1c(=O)c2cnc(Nc3ccc(N4CCN(C)CC4)cc3)nc2n1-c1cccc(C(C)(C)O)n1 [AZD1775] (first compound max 1 µM, partner max 1 µM) with NCI-H1755 (Lung Adenocarcinoma) was 0.749

====

system: NCI-H1563 (Lung Adenocarcinoma); experiment: combination Emax (second highest fraction inhibited in the dose matrix, 72 h); higher = more inhibition; extreme values may be limits of the assay
MEASURED_METRIC: combination Emax

Observe how each entry below is paired with its result.
COMPOUND	combination Emax
C=CCn1c(=O)c2cnc(Nc3ccc(N4CCN(C)CC4)cc3)nc2n1-c1cccc(C(C)(C)O)n1 [AZD1775] + C[C@@H]1COCCN1C2=NC(=NC(=C2)C3(CC3)[S@](=N)(=O)C)C4=C5C=CNC5=NC=C4 [AZD6738] (first compound max 1 µM, partner max 10 µM)	0.446
C[C@@H]1COCCN1c1cc(C2([S@](C)(=N)=O)CC2)nc(-c2ccnc3[nH]ccc23)n1 [AZD6738] + O=C(c1cc(Cc2n[nH]c(=O)c3ccccc23)ccc1F)N1CCN(C(=O)C2CC2)CC1 [Olaparib] (first compound max 10 µM, 7x7, partner max 10 µM)	0.223
CCN(CCO)CCCOc1ccc2c(Nc3cc(CC(=O)Nc4cccc(F)c4)[nH]n3)ncnc2c1 [AZD2811] + C=CCn1c(=O)c2cnc(Nc3ccc(N4CCN(C)CC4)cc3)nc2n1-c1cccc(C(C)(C)O)n1 [AZD1775] (first compound max 1 µM, partner max 1 µM)	0.245

API: the following record is the query input.
Field combination Emax (entry Cn1cnc2c(F)c(Nc3ccc(Br)cc3Cl)c(C(=O)NOCCO)cc21 [Selumetinib] + C[C@@H]1COCCN1C2=NC(=NC(=C2)C3(CC3)[S@](=N)(=O)C)C4=C5C=CNC5=NC=C4 [AZD6738] (first compound max 10 µM, 7x7, partner max 10 µM) ) reads 0.313

====

system: RL95-2 (Endometrial Carcinoma); assay: combination Emax (second highest fraction inhibited in the dose matrix, 72 h); higher = more inhibition; extreme values may be limits of the assay
Label MET when combination Emax is at or above 0.8; otherwise label NOT MET.

A selection of reference data follows.
MOLECULE	CLASS_ASSIGNMENT
COc1cccc(OCCCN)c1-c1cc(Nc2cnc(C#N)cn2)n[nH]1 [Prexasertib] + Cc1cc2ncnn2cc1Nc1ncc2c(n1)n(C1CCOCC1)c(=O)n2C [AZD7648] (first compound max 1 µM, 7x7, partner max 10 µM)	MET
CN(CCO)CC[C@H](CSc1ccccc1)Nc1ccc(S(=O)(=O)NC(=O)c2ccc(N3CCC([C@@H](O)c4ccccc4-c4ccc(Cl)cc4)CC3)cc2)cc1S(=O)(=O)C(F)(F)F [AZD4320] + C[C@@H]1COCCN1C2=NC(=NC(=C2)C3(CC3)[S@](=N)(=O)C)C4=C5C=CNC5=NC=C4 [AZD6738] (first compound max 1 µM, 7x7, partner max 10 µM)	NOT MET
Cc1c2c(nn1C)CSCc1cc(n(C)n1)CSc1cc(c3ccccc3c1)OCCCc1c(C(=O)O)n(C)c3c-2c(Cl)ccc13 [AZD5991] + C=CCn1c(=O)c2cnc(Nc3ccc(N4CCN(C)CC4)cc3)nc2n1-c1cccc(C(C)(C)O)n1 [AZD1775] (first compound max 1 µM, partner max 1 µM)	MET
COc1nnc2ccc(N3CCC(c4ccc(OCCN5CCN(C)C(=O)[C@H]5C)cc4)CC3)nn12 [AZD5153] + Cc1c2c(nn1C)CSCc1cc(n(C)n1)CSc1cc(c3ccccc3c1)OCCCc1c(C(=O)O)n(C)c3c-2c(Cl)ccc13 [AZD5991] (first compound max 1 µM, 7x7, partner max 1 µM)	MET
CC1(C)CCC(CN2CCN(c3ccc(C(=O)NS(=O)(=O)c4ccc(NCC5CCOCC5)c([N+](=O)[O-])c4)c(Oc4cnc5[nH]ccc5c4)c3)CC2)=C(c2ccc(Cl)cc2)C1 [Venetoclax] + C1CN(CCC1(C(=O)N[C@@H](CCO)C2=CC=C(C=C2)Cl)N)C3=NC=NC4=C3C=CN4 [Capivasertib] (first compound max 1 µM, 7x7, partner max 3 µM)	NOT MET
COc1cc2ncnc(Nc3ccc(F)c(Cl)c3)c2cc1OCCCN1CCOCC1 [Gefitinib] + CC(C)n1c(=O)n(C)c2cnc3cc(F)c(-c4ccc(OCCCN5CCCCC5)nc4)cc3c21 [AZD1390] (first compound max 10 µM, 7x7, partner max 0.3 µM)	NOT MET

Ask | API: above_or_equal(metric=combination Emax, cutoff=0.8) for item C[C@@H]1COCCN1c1cc(C2([S@](C)(=N)=O)CC2)nc(-c2ccnc3[nH]ccc23)n1 [AZD6738] + O=C(c1cc(Cc2n[nH]c(=O)c3ccccc23)ccc1F)N1CCN(C(=O)C2CC2)CC1 [Olaparib] (first compound max 10 µM, 7x7, partner max 10 µM)
Reply | NOT MET

====

system: OCI-AML5 (Acute Myeloid Leukemia); experiment: Bliss excess, mean over the matrix (fraction); higher = more synergy;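 further: after 72 h of two-drug dosing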
List of Bliss excess values.
Lab note: record just the number, no unit beside it.

Observe how each entry below is paired with its result.
MOLECULE	Bliss excess
CC1(C)CCC(CN2CCN(c3ccc(C(=O)NS(=O)(=O)c4ccc(NCC5CCOCC5)c([N+](=O)[O-])c4)c(Oc4cnc5[nH]ccc5c4)c3)CC2)=C(c2ccc(Cl)cc2)C1 [Venetoclax] + COc1cc(Nc2ncc3c(n2)-c2ccc(Cl)cc2C(c2c(F)cccc2OC)=NC3)ccc1C(=O)O [Alisertib] (first compound max 1 µM, 7x7, partner max 10 µM)	0.17
CC1(C)CCC(CN2CCN(c3ccc(C(=O)NS(=O)(=O)c4ccc(NCC5CCOCC5)c([N+](=O)[O-])c4)c(Oc4cnc5[nH]ccc5c4)c3)CC2)=C(c2ccc(Cl)cc2)C1 [Venetoclax] + CCN(CCO)CCCOc1ccc2c(Nc3cc(CC(=O)Nc4cccc(F)c4)[nH]n3)ncnc2c1 [AZD2811] (first compound max 1 µM, 7x7, partner max 1 µM)	-0.0195

API: the following record is the query input.
Field Bliss excess (entry CN(CCO)CC[C@H](CSc1ccccc1)Nc1ccc(S(=O)(=O)NC(=O)c2ccc(N3CCC([C@@H](O)c4ccccc4-c4ccc(Cl)cc4)CC3)cc2)cc1S(=O)(=O)C(F)(F)F [AZD4320] + Cc1cc2ncnn2cc1Nc1ncc2c(n1)n(C1CCOCC1)c(=O)n2C [AZD7648] (first compound max 1 µM, 7x7, partner max 10 µM) ) reads 0.0193
